Test system: Gastric cancer cell line HGC-27
Assay: Colorimetric cell proliferation and viability assay (CellTiter-Blue), HGC-27
Details: Homo sapiens, HGC-27, 72 h, read-out: IC50, agent alone
Readout Label: IC50 (µM)

A. O=c1[nH]cc(F)c(=O)[nH]1
B. COc1cc([C@@H]2c3cc4c(cc3[C@@H](O[C@@H]3O[C@@H]5CO[C@@H](C)O[C@H]5[C@H](O)[C@H]3O)[C@H]3COC(=O)[C@H]23)OCO4)cc(OC)c1O [Etoposide]
Incoming: Lab log: flag the item ( A or B ) with the smaller IC50 figure. Use the label to indicate which entry you chose.
Outgoing: B
(B: 20 µM, A: 1000 µM)

###

Test system: Gastric cancer cell line HGC-27
Experiment: Colorimetric cell proliferation and viability assay (CellTiter-Blue), HGC-27
Details: Homo sapiens, HGC-27, 72 h, read-out: IC50, agent alone
pIC50: −log10 of the molar value.
Readout Label: pIC50

Record excerpt, results attached:
{"Compound": "CCc1c2c(nc3ccc(OC(=O)N4CCC(N5CCCCC5)CC4)cc13)-c1cc3c(c(=O)n1C2)COC(=O)[C@]3(O)CC [Irinotecan]", "Reported Value": "< 4.00"}
{"Compound": "Cc1ccc(NC(=O)c2ccc(CN3CCN(C)CC3)cc2)cc1Nc1nc(-c2cccnc2)cs1 [masitinib]", "Reported Value": "5.00 to 5.30"}

// next entry
Incoming: Using known records, supply pIC50 for CC[C@]1(O)C[C@H]2CN(CCc3c([nH]c4ccccc34)[C@@](C(=O)OC)(c3cc4c(cc3OC)N(C=O)[C@H]3[C@@](O)(C(=O)OC)[C@H](OC(C)=O)[C@]5(CC)C=CCN6CC[C@]43[C@@H]65)C2)C1 [Vincristin]
Outgoing: 6.00 to 7.00
